Target: HIV-1 JR-CSF Env I307A (HIV-1 JR-CSF) (UniProt P20871)
Assay: cell-based or functional assay
Would you mind telling me the reported Fold IC50 increase relative to wild-type of each entry?
Give a bare numeral; the unit fold is implied.

Q. Which Fold IC50 increase relative to wild-type reading was recorded for the binder PGT-128 (antibody, V domains shown) VH: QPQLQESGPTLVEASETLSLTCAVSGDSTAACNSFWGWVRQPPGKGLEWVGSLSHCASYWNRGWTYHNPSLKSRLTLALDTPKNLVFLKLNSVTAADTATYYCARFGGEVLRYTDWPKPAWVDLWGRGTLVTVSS VL: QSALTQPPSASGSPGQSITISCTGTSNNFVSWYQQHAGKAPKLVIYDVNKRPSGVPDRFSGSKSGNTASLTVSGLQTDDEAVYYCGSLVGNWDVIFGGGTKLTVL ?
A. 3.7

Q. Which Fold IC50 increase relative to wild-type reading was recorded for the binder PGT-126 (antibody, V domains shown) VH: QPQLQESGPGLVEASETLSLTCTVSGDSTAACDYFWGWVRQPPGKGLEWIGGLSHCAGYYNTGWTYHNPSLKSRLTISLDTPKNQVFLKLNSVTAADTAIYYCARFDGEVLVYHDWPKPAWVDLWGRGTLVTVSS VL: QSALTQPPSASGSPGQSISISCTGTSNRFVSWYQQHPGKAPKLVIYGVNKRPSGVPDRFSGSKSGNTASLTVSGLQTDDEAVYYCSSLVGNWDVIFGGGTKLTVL ?
A. 1.8

Q. Which Fold IC50 increase relative to wild-type reading was recorded for the binder PGT-130 (antibody, V domains shown) VH: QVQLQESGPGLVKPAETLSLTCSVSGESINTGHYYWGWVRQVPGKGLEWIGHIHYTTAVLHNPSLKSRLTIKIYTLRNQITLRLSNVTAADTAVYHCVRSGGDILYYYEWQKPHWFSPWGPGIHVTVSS VL: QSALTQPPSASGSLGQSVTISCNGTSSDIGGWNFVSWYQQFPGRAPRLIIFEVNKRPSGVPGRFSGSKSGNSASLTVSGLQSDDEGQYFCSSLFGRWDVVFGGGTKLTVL ?
A. 1000
